# method_notes: xn = mol fraction of the nth substance listed
# condition_context: 333.15 K; 100 kPa; Liquid; Alternating current cell with electrodes; x1 = 0.25
// NB: equality with 0.4 S/m counts as -1; only electrical conductivity strictly below is 1

Asked: Is the reported electrical conductivity for C[N+](C)(C)Cc1ccccc1.[Cl-] [trimethylbenzylammonium chloride] + OCCO strictly below 0.4 S/m?
Given back: -1

Asked: Is the reported electrical conductivity for C[N+](C)(C)Cc1ccccc1.[Cl-] [trimethylbenzylammonium chloride] + OCCOCCO strictly below 0.4 S/m?
Given back: -1

Asked: Is the reported electrical conductivity for CCCC[N+](CCCC)(CCCC)Cc1ccccc1.[Cl-] [benzyltributylammonium chloride] + OCCOCCO strictly below 0.4 S/m?
Given back: 1

Asked: Is the reported electrical conductivity for C[N+](C)(C)Cc1ccccc1.[Cl-] [trimethylbenzylammonium chloride] + OCC(O)CO strictly below 0.4 S/m?
Given back: 1

Asked: Is the reported electrical conductivity for CCCC[N+](CCCC)(CCCC)Cc1ccccc1.[Cl-] [benzyltributylammonium chloride] + OCC(O)CO strictly below 0.4 S/m?
Given back: 1

Asked: Is the reported electrical conductivity for C[N+](C)(C)Cc1ccccc1.[Cl-] [trimethylbenzylammonium chloride] + OCCOCCOCCO strictly below 0.4 S/m?
Given back: 1

Asked: Is the reported electrical conductivity for CCCC[N+](CCCC)(CCCC)Cc1ccccc1.[Cl-] [benzyltributylammonium chloride] + OCCOCCOCCO strictly below 0.4 S/m?
Given back: 1

Asked: Is the reported electrical conductivity for CCCC[N+](CCCC)(CCCC)Cc1ccccc1.[Cl-] [benzyltributylammonium chloride] + OCCO strictly below 0.4 S/m?
Given back: 1

FYI, the data here is from the NIST ThermoML archive (doi:10.1021/acs.jced.8b00213).
